target: human CCL5 (Homo sapiens, UniProt P13501); assay: Fluorescence anisotropy titration of 5(6)-Fam-labeled peptides by CCL5; format: binding; details: fluorescence anisotropy; 100 nM 5(6)-Fam-labeled peptide, HEPES pH 7.4, 37 °C, titrated by 30 μM stock of CCL5; ex 495/em 520 nm; three or four independent measurements; read-out: apparent KD
Sequence (P13501 24-91): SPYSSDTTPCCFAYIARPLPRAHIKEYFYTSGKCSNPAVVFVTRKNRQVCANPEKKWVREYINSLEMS
parameter: Kd

Exercise: Report the value of Kd obtained on human CCL5 (Homo sapiens, UniProt P13501) for H-EEEDDYTAYAPLTAYFTN-NH2 [Ev4 Glu^14–Asn^31, H2N-EEEDDYTAYAPLTAYFTN-CONH2] .
Solution: 69 nM
